The origin of these recorded values is the CheMixHub drug solubility set.

Could you please report measured solubility (g/100 g solution) for the items listed next?
- experiment-notes: xn = mol fraction of the nth substance listed, in the solute-free solvent
- test-settings: 303.15 K; x2 = 0.9

INSERT INTO results (compound, observed_measurement) VALUES
  ('Cl.NC(C=O)C(O)C(O)C(O)CO (stereo not drawn) + O + CO', 21),
  ('O=CC(O)C(O)C(O)CO (stereo not drawn) + CCO + ClCCl', 5.99),
  ('O=CC(O)C(O)C(O)CO (stereo not drawn) + CCO + CCCCCC', 4.09),
  ('O=CC(O)C(O)C(O)CO (stereo not drawn) + CO + ClCCl', 25.3),
  ('Cc1nc(C)c(C)nc1C + CCCCO + CC#N', 41.8);

// for each compound below, give its solubility (g/100 g solution)
1. O=CC(O)C(O)C(O)CO (stereo not drawn) + CC(C)O + CCCCCC
2. Cl.NC(C=O)C(O)C(O)C(O)CO (stereo not drawn) + O + CCO
3. Cc1nc(C)c(C)nc1C + CO + CC#N

1: 2.1; 2: 17.4; 3: 61.9
